The measured values listed here are drawn from ChEMBL document CHEMBL4033705.

# key: entry, value: inhibition
molecular target: Mushroom tyrosinase (Agaricus bisporus) (UniProt O42713+Q00024+C7FF04+C7FF05); assay: Inhibition of mushroom tyrosinase at 10 uM using L-tyrosine as substrate incubated for 15 mins followed by substrate addition relative to control
endpoint.label: inhibition (%)

INSERT INTO results (sample_smiles, assay_system, units, recorded_result) VALUES
  ('CC(C)=CCc1c(O)cc2occ(-c3ccc4c(c3)C=CC(C)(C)O4)c(=O)c2c1O', 'Mushroom tyrosinase (Agaricus bisporus) (UniProt O42713+Q00024+C7FF04+C7FF05)', '%', 3),
  ('CC(C)=CCc1c(O)cc(O)c2c(=O)c(-c3ccc(O)cc3)coc12', 'Mushroom tyrosinase (Agaricus bisporus) (UniProt O42713+Q00024+C7FF04+C7FF05)', '%', 16),
  ('CC1(C)[C@@H](OC=O)CC[C@]2(C)[C@H]3C(=O)C=C4[C@@H]5C[C@@](C)(C(=O)O)CC[C@]5(C)CC[C@@]4(C)[C@]3(C)CC[C@@H]12', 'Mushroom tyrosinase (Agaricus bisporus) (UniProt O42713+Q00024+C7FF04+C7FF05)', '%', 0),
  ('C=C(C)[C@H](C)c1cc(/C=C/C(=O)c2ccc(O)cc2)c(OC)cc1O', 'Mushroom tyrosinase (Agaricus bisporus) (UniProt O42713+Q00024+C7FF04+C7FF05)', '%', 8),
  ('CC(C)=CCc1cc([C@@H]2CC(=O)c3c(O)cc(O)c(CC=C(C)C)c3O2)ccc1O', 'Mushroom tyrosinase (Agaricus bisporus) (UniProt O42713+Q00024+C7FF04+C7FF05)', '%', 5),
  ('CC(C)=CCc1cc([C@@H]2CC(=O)c3ccc(O)cc3O2)cc2c1OC(C)(C)C=C2', 'Mushroom tyrosinase (Agaricus bisporus) (UniProt O42713+Q00024+C7FF04+C7FF05)', '%', 6),
  ('COc1c(/C=C/C(=O)c2ccc(O)cc2)ccc(O)c1O', 'Mushroom tyrosinase (Agaricus bisporus) (UniProt O42713+Q00024+C7FF04+C7FF05)', '%', 8),
  ('O=C1C[C@@H](c2cc(O)cc(O)c2)Oc2cc(O)ccc21', 'Mushroom tyrosinase (Agaricus bisporus) (UniProt O42713+Q00024+C7FF04+C7FF05)', '%', 12);
